Each item that follows carries a reported Kd.
measured.on: T1, IL-4 receptor (immobilized on BIAcore CM5 chip) (human, UniProt P24394 26-232, limits assumed)
T1 construct: also called IL-4Rα; IL-4 receptor alpha chain
T1 sequence (looked up): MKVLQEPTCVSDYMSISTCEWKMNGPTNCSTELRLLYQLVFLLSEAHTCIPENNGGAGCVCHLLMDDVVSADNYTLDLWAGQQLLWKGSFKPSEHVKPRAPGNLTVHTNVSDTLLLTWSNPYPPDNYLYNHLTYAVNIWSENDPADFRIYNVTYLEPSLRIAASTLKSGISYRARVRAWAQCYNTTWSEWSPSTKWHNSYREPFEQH
experiment: BIAcore SPR, IL-4 receptor amine-coupled to CM5 chip, mutein injected, direct binding kinetics
Answers without a unit are incomplete; give the number and then its unit.

- binder: "IL4-RE-T28C, PEGylated with linear 22 kD mPEG-maleimide (ligand, linear 22 kD methoxy-polyethylene glycol-maleimide on Cys 28 (numbered according to wild type IL-4), also called PEG-IL4RE) MHKCDITLQEIIKTLNSLTEQKTLCTELCVTDIFAASKNTTEKETFCRAATVLRQFYSHHEKDTRCLGATAQQFHRHKQLIRFLKRLDRNLWGLAGLNSCPVKEANQSTLENFLERLKTIMDEKDSKCSS"
  Kd: "0.89 nM"

Then this binder:
Exam item: Would you mind telling me what Kd value was observed for IL4-RE-S36C, PEGylated with linear 22 kD mPEG-maleimide (ligand, linear 22 kD methoxy-polyethylene glycol-maleimide on Cys 36 (numbered according to wild type IL-4), also called PEG-IL4RE) MHKCDITLQEIIKTLNSLTEQKTLCTELTVTDIFAACKNTTEKETFCRAATVLRQFYSHHEKDTRCLGATAQQFHRHKQLIRFLKRLDRNLWGLAGLNSCPVKEANQSTLENFLERLKTIMDEKDSKCSS ?
Marked response: 1.15 nM
